tested on: Panc 10.05 cells; assay: Proliferation assay, cells in adhesion; type: cell-based; conditions: Homo sapiens, Panc1005, Panc 10.05, T7, read-out: IC50
pIC50: −log10 of the molar value.

{"Compound": "CN(C)C/C=C/C(=O)Nc1ccc(CC(=O)Nc2ccc(-c3cc4c(N5CCOCC5)ncnc4[nH]3)cc2)cc1", "Limit Sign": "<", "pIC50": 5.30}
{"Compound": "C=CC(=O)NC1CCCN(Cc2ccnc(C(=O)Nc3ccc(-c4cc5c(N6CCOCC6)ncnc5[nH]4)cc3)c2)C1 (centres unmarked)", "Limit Sign": "=", "pIC50": 6.31}

----------
Reported pIC50 values are given for each entry in this list.
system: OCI-AML-3 cells; experiment: Long term proliferation assay, InCell read-out; format: cell-based; conditions: Homo sapiens, OCI-AML-3, OCI-AML3, T4, read-out: IC50
pIC50: −log10 of the molar value.
Outcome Measure: pIC50

{"Compound": "C=CC(=O)NC1CCCN(Cc2ccnc(C(=O)Nc3ccc(-c4cc5c(N6CCOCC6)ncnc5[nH]4)cc3)c2)C1 (centres unmarked) [Compound 10]", "Value Reported": 6.96}
{"Compound": "CN(C)C/C=C/C(=O)Nc1ccc(CC(=O)Nc2ccc(-c3cc4c(N5CCOCC5)ncnc4[nH]3)cc2)cc1 [Compound 5]", "Value Reported": 6.35}

----------
test system: MV4-11 cells; assay: Long term proliferation assay, InCell read-out; format: cell-based, human; conditions: Homo sapiens, MV4-11, 264 h, MV4-11, Day 11, read-out: Day 11 IC50
pIC50: −log10 of the molar value.

{"Molecule": "C=CC(=O)NC1CCCN(Cc2ccnc(C(=O)Nc3ccc(-c4cc5c(N6CCOCC6)ncnc5[nH]4)cc3)c2)C1 (centres unmarked)", "pIC50": 6.77}
{"Molecule": "CN(C)C/C=C/C(=O)Nc1ccc(CC(=O)Nc2ccc(-c3cc4c(N5CCOCC5)ncnc4[nH]3)cc2)cc1", "pIC50": 6.31}

----------
tested on: RS4-11 (MLL-AF4) cells; assay: Long-term proliferation (LTP) assay, CellTiterGlo (Example 103); assay type: cell-based; details: Homo sapiens, 96 h; RS4-11 (MLL-AF4); Day 4; LTP assay; read-out: Day 4 IC50

{"Molecule": "CN(C)C/C=C/C(=O)NC1CN(c2ccnc(NC(=O)Nc3ccc(-c4cc5c(N6CCOCC6)ncnc5[nH]4)cc3)c2)C1", "IC50 / nM": 1450}
{"Molecule": "C=CC(=O)NC1CN(c2ccnc(NC(=O)Nc3ccc(-c4nc5c(N6CCOCC6)nccc5[nH]4)cc3)c2)C1", "IC50 / nM": 1480}
{"Molecule": "C=CC(=O)NC1CN(c2ccnc(NC(=O)Nc3ccc(-c4cc5c(N6CCOCC6)ncnc5[nH]4)cc3)c2)C1", "IC50 / nM": 550}
{"Molecule": "C=CC(=O)NC1CCCN(Cc2ccnc(C(=O)Nc3ccc(-c4cc5c(N6CCOCC6)ncnc5[nH]4)cc3)c2)C1 (stereo not shown)", "IC50 / nM": 500}

----------
Test system: OCI-AML-3 cells
Assay: Long term proliferation assay, Cell Titer-Glo read-out
Format: cell-based
Settings: Homo sapiens, OCI-AML-3, 96 h, OCI-AML-3; Day 4; Cell Titer-Glo; read-out: Day 4 IC50
Experimental: Compounds of invention are tested in the 5 suspension lines by 14-day long-term proliferation assay. […] To do this take the total viable cell count calculated using step: • 1. […] To calculate growth for days 4, 7, 11, and 14: • 1. […] The growth inhibition was calculated with the formula ((untreated cell numbers-treated cell numbers)/untreated cell)). • 7. […]
pIC50: −log10 of the molar value.
Outcome Measure: pIC50

{"Compound": "C=CC(=O)NC1CCCN(Cc2ccnc(C(=O)Nc3ccc(-c4cc5c(N6CCOCC6)ncnc5[nH]4)cc3)c2)C1 (centres unmarked)", "Value Reported": 6.72}
{"Compound": "CN(C)C/C=C/C(=O)Nc1ccc(CC(=O)Nc2ccc(-c3cc4c(N5CCOCC5)ncnc4[nH]3)cc2)cc1", "Value Reported": 6.08}
